Target: human PD-1 expressed on cells (CHO human PD-1 cells) (human, UniProt Q15116 21-288)
Sequence (Q15116 21-288): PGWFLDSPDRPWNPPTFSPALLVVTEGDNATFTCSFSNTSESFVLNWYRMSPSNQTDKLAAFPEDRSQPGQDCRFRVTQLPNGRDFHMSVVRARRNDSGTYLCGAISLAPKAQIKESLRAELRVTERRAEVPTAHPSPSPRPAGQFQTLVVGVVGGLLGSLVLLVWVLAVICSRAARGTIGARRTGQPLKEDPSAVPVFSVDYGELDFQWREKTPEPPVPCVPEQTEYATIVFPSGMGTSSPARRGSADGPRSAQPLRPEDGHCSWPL
Test: cell-based or functional assay
Returns: string. Value is true if measured Reporter Assay EC50 is below 0.02 µM, and false if it is greater than or equal to it.

// known answers, use as guide
1. Humabody® 1.43 (VHH, human VH single domain antibody) VHH: QVQLVESGGGLVKPGGSLRLSCAASGFTFSDSSMTWMRQAPGKGLEWVSYISSGGGVIFYADSVKGRFTISRDNAKNSLYLQMNSLRADDTAVYYCAREAPLRLGESPHDAFDIWGQGTMVTVSS = true
2. Humabody® 1.98 (VHH, human VH single domain antibody) VHH: EVQLVESGGGLVKPGGSLRLSCAASGFTFSDKSMTWMRQAPGKGLEWVSYISSGGGVKFYADSVKGRFTISRDNAKNSLYLQMNSLRAEDTAVYYCAREAPLRLGESPHDAFDISGQGTMVTVSS = true
3. Humabody® 1.51 (VHH, human VH single domain antibody) VHH: QVQLVESGGGLVKPGGSLRLSCAASGFTFSDSSMTWMRQAPGKGLEWVSYISSGGAVKFYTDSVKGRFTISRDNAKNSLYLQMNSLRADDTAVYYCAREAPLRLGESPHDAFDIWGQGTMVTVSS = false
4. Humabody® 1.70 (VHH) VHH: QVQLVESGGGLVKPGGSLRLSCAASGFTFGDSSMTWMRQAPGKGLEWVSYISSGGAVKFYTDSVKGRFTISRDNAKNSLYLQMNSLRADDTAVYYCAREAPLRLGESPHDAFDISGQGTMVTVSS = false

Field: next binder
Strictly below 0.02 µM: is that where Reporter Assay EC50 of Humabody® 1.89 (VHH, human VH single domain antibody) VHH: EVQLVESGGGLVKPGGSLRLSCAASGFTFSDYSMTWMRQAPGKGLEWVSYISSGGGVKFYADSVKGRFTISRDNAKNSLYLQMNSLRAEDTAVYYCAREAPLRLGESPHDAFDISGQGTMVTVSS sits?
true
